The values you see were collected from PubChem BioAssay AID1159580.

experiment: chemical genetic growth profiling, strain panel (AID 1159580);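 further: tested at 20 µM; growth read once vehicle control cultures reached saturation at 30 °C; lower values mean less growth of the strain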; conditions: S. cerevisiae deletion strains, growth OD, locus YJR016C, strain ILV3
Screen size: about 5,500 compounds; about 2,000 (36%) were called active. Inconclusive results (about 18%) are left out. No stated cut-off is given here; in the data, active means normalized growth mostly below about 0.91 (no sharp cut-off); inconclusive means no clear call, values can overlap the other calls; inactive means mostly above about 0.92. This is one part of the list.
Answer with one of the outcomes given here: Y (active), N (inactive)

NC(N)=Nc1nc(-c2cc(Cl)sc2Cl)cs1 ... N
Cn1cncc1S(=O)(=O)/C(C#N)=C/c1ccccc1Sc1ccc(Cl)cc1 ... N
Cc1ccccc1C(=O)N1CCc2c([nH]c3ccccc23)C1C(F)(F)F (stereo not given) ... N

Please state the recorded outcome for this molecule: N#Cc1c(Cl)c(Cl)c(Cl)c(Cl)c1C#N
Y

Please state the recorded outcome for this molecule: Cc1oc2c(F)c(F)c(F)c(F)c2c1C(=O)ONC(N)c1ccc(OS(=O)(=O)N(C)C)cc1 (stereo not given)
N
